# Lookup of reported EC50 keyed by entry
Test system: Human immunodeficiency virus 1
Procedure Summary: Concentration required to achieve 50% protection of MT-4 cells against the cytopathic effect of HIV-1
Format: functional, organism-based
Measurement Parameters: Human immunodeficiency virus 1, MT4
Metric Name: EC50 (µM)

# Compound, Test System, Unit Spec, Rel, Observed
records = [
    ("CC(C)(C)c1ccc(S(=O)(=O)n2ccc(C(O)c3ccc(Cl)cc3Cl)c2)cc1 (configuration not stated)", "Human immunodeficiency virus 1", "µM", "=", 2.5),
    ("O=S(=O)(c1ccccc1)n1ccc(C(O)c2ccccc2F)c1 (configuration not stated)", "Human immunodeficiency virus 1", "µM", "=", 9.1),
    ("Cc1ccc(S(=O)(=O)n2ccc(C(O)c3ccc(Cl)cc3Cl)c2)c(C)c1 (configuration not stated)", "Human immunodeficiency virus 1", "µM", "=", 0.3),
    ("CCOP(=O)(OCC)OP(=O)(OCC)OCC [ETHYL PYROPHOSPHATE]", "Human immunodeficiency virus 1", "µM", "=", 7),
    ("CCOC(=O)c1cc(C(O)c2ccc(Cl)cc2Cl)cn1S(=O)(=O)c1cc(Cl)ccc1[N+](=O)[O-] (configuration not stated)", "Human immunodeficiency virus 1", "µM", ">", 14),
    ("O=S(=O)(c1ccccc1)n1ccc(C(c2ccc(Cl)cc2)n2ccnc2)c1 (configuration not stated)", "Human immunodeficiency virus 1", "µM", ">", 22),
    ("Cc1ccc(S(=O)(=O)n2ccc(C(O)c3ccc(Cl)cc3Cl)c2)cc1 (configuration not stated)", "Human immunodeficiency virus 1", "µM", "=", 0.3),
    ("O=S(=O)(c1ccccc1)n1ccc(C(O)c2ccc(Cl)cc2Cl)c1 (configuration not stated)", "Human immunodeficiency virus 1", "µM", "=", 5),
    ("Cc1ccc(C(O)c2ccn(S(=O)(=O)c3ccccc3)c2)cc1 (configuration not stated)", "Human immunodeficiency virus 1", "µM", "=", 15),
    ("CC(C)c1ccc(S(=O)(=O)n2ccc(C(O)c3ccc(Cl)cc3Cl)c2)cc1 (configuration not stated)", "Human immunodeficiency virus 1", "µM", "=", 1.8),
    ("O=C(c1ccn(S(=O)(=O)c2ccccc2)c1)c1ccc(Cl)cc1Cl", "Human immunodeficiency virus 1", "µM", ">", 30),
    ("O=S(=O)(c1ccccc1)n1ccc(C(c2ccccc2)n2ccnc2)c1 (configuration not stated)", "Human immunodeficiency virus 1", "µM", ">", 25),
    ("Nc1ccc(Cl)cc1S(=O)(=O)n1ccc(C(O)c2ccccc2)c1 (configuration not stated)", "Human immunodeficiency virus 1", "µM", "=", 3.2),
    ("O=S(=O)(c1ccccc1)n1ccc(C(O)c2ccc(Cl)cc2)c1 (configuration not stated)", "Human immunodeficiency virus 1", "µM", "=", 9),
    ("Cc1ccc(C(=O)c2ccn(S(=O)(=O)c3ccccc3)c2)cc1", "Human immunodeficiency virus 1", "µM", ">", 30),
    ("O=C(c1ccc(Cl)cc1)c1ccn(S(=O)(=O)c2ccccc2)c1", "Human immunodeficiency virus 1", "µM", ">", 26),
    ("CCc1ccc(S(=O)(=O)n2ccc(C(O)c3ccc(Cl)cc3Cl)c2)cc1 (configuration not stated)", "Human immunodeficiency virus 1", "µM", "=", 1.5),
    ("Cc1ccc(C(O)c2ccn(S(=O)(=O)c3ccc(C)cc3)c2)cc1 (configuration not stated)", "Human immunodeficiency virus 1", "µM", "=", 7.3),
    ("O=S(=O)(c1ccccc1)n1ccc(C(O)c2ccccc2Cl)c1 (configuration not stated)", "Human immunodeficiency virus 1", "µM", "=", 4.1),
    ("CC(O)c1ccn(S(=O)(=O)c2cc(Cl)ccc2N)c1 (configuration not stated)", "Human immunodeficiency virus 1", "µM", ">", 95),
    ("Cc1ccccc1S(=O)(=O)n1ccc(C(O)c2ccc(Cl)cc2Cl)c1 (configuration not stated)", "Human immunodeficiency virus 1", "µM", "=", 1.7),
    ("O=S(=O)(c1ccccc1)n1ccc(C(O)c2c(F)cccc2F)c1 (configuration not stated)", "Human immunodeficiency virus 1", "µM", "=", 48),
]
